- System: CU-ACC2
- experimental.protocol: area under concentration-response curve (viability) (AUC (a.u.)); higher = less active
- measurement.conditions: 48 h
reported.property: area under concentration-response curve

>>> observed("O=C(O)CCNC(=O)c1ccc(/N=N/c2ccc(O)c(C(=O)O)c2)cc1")
635
>>> observed("Nc1nc(N)c2nc(-c3cccc(Cl)c3)c(N)nc2n1")
596
>>> observed("Cc1csc(NC(=O)c2sc3nc4c(c(C(F)(F)F)c3c2N)CCC4)n1")
494
>>> observed("CC(C)(c1ccc(OCC(O)CO)cc1)c1ccc(OCC(O)CCl)cc1 (configuration not stated)")
301
>>> observed("CN[C@@H](C)C(=O)N[C@H]1CCCC[C@H]2CC[C@@H](C(=O)N[C@@H](c3ccccc3)c3cn(CCCCc4ccc(CCCCn5cc([C@@H](NC(=O)[C@@H]6CC[C@@H]7CCCC[C@H](NC(=O)[C@H](C)NC)C(=O)N76)c6ccccc6)nn5)cc4)nn3)N2C1=O")
303
>>> observed("FC1=CC=C(SC/2=N/N3\\C=N/C(=O)/C(=C3/C=C2)C4=C(Cl)C=CC=C4Cl)C(=C1)F")
562
>>> observed("COCCCc1sc(-c2ccccc2)nc1C(=O)Nc1ccccc1-c1nc2cc(CN3CCCC3)cnc2s1")
564
>>> observed("OC[C@H]1O[C@H]([C@H](O)[C@@H]1O)N2\\C=C/C(=O)NC2=O")
535
>>> observed("ONC(=O)C1=CC=C(C=C1)C/2=N/C3=CC=CC=C3OC4=C2C=CC=C4")
507
>>> observed("CC1=CC(=C(O)C(=C1C\\C2=N\\CCN2)C)C(C)(C)C")
579
>>> observed("O=C(NOCC1CC1)c1ccc(F)c(F)c1Nc1ccc(I)cc1Cl")
527
>>> observed("CCCCCCCOc1ccc(CCC(N)(CO)CO)cc1C(F)(F)F")
553
>>> observed("CC#C[C@@H](CC(=O)O)c1ccc(OCc2cccc(-c3ccc(C(F)(F)F)cc3)c2)cc1")
506
>>> observed("CCc1nc(-c2cccc(C)c2)c(-c2ccnc(NC(=O)c3ccccc3)c2)s1")
574
>>> observed("COc1ccc(Nc2nccc(NCCO)n2)cc1")
578
>>> observed("Cc1nc(Nc2ncc(C(=O)Nc3c(C)cccc3Cl)s2)cc(N2CCN(CCO)CC2)n1")
461
>>> observed("OC[C@H](Cc1ccccc1)Nc1nc(Oc2ccc3c(c2)CCC3)nc2c1ncn2Cc1ccc(-c2ccccc2)cc1")
524
